- protocol_description: ATR-FT-IR determination of β-sheet content
- Type: physicochemical
- particulars: 1 mg/mL in PBS lyophilized; integral at 1630 cm^-1 relative to 1650-1700 cm^-1
Where a SMILES comes first, the peptide text is derived from it. The star is where a group is joined. Fmoc = O=C(OCC1c2ccccc2-c2ccccc21)*; Palmitoyl = CCCCCCCCCCCCCCCC(=O)*; Lauroyl = CCCCCCCCCCCC(=O)*
assay_readout: β-sheet amount (%)
Could you give me the number in %? Just the number is fine.

# example entries with known answers
Please give the measured β-sheet amount for this compound: CC(C)[C@H](NC(=O)OCC1c2ccccc2-c2ccccc21)C(=O)N[C@H](C(=O)N[C@H](C(=O)N[C@@H](C)C(=O)N[C@@H](C)C(=O)N[C@@H](C)C(=O)N[C@@H](CCCCN)C(=O)N[C@@H](CCCCN)C(=O)N[C@@H](CCCCN)C(N)=O)C(C)C)C(C)C [Pat12] (Fmoc-VVVAAAKKK-NH2)
52

Please give the measured β-sheet amount for this compound: CCCCCCCCCCCC(=O)N[C@H](C(=O)N[C@H](C(=O)N[C@H](C(=O)N[C@@H](C)C(=O)N[C@@H](C)C(=O)N[C@@H](C)C(=O)N[C@@H](CCCCN)C(=O)N[C@@H](CCCCN)C(=O)N[C@@H](CCCCN)C(N)=O)C(C)C)C(C)C)C(C)C [Pat7] (Lauroyl-VVVAAAKKK-NH2)
49

In the following, a different compound is considered.
Please give the measured β-sheet amount for this compound: CCCCCCCCCCCCCCCC(=O)N[C@@H](CCCNC(=N)N)C(=O)N[C@@H](CCCNC(=N)N)C(=O)N[C@@H](Cc1c[nH]c2ccccc12)C(=O)N[C@@H](CCC(N)=O)C(=O)N[C@@H](Cc1c[nH]c2ccccc12)C(=O)N[C@@H](CCCNC(=N)N)C(N)=O [Pat22, C16-RRWQWR-NH2] (Palmitoyl-RRWQWR-NH2)
0

----------
- protocol_description: Thioflavin T (ThT) fluorescence assay
- Format: physicochemical
- particulars: relative to PBS control
Where a SMILES comes first, the peptide text is derived from it. The star is where a group is joined. X1 = CC/C=C\C/C=C\C/C=C\C/C=C\C/C=C\CCCC(=O)*; Palmitoyl = CCCCCCCCCCCCCCCC(=O)*; Lauroyl = CCCCCCCCCCCC(=O)*
Listed below: N-fold ThT-fluorescence values for each entry.

Please give the measured N-fold ThT-fluorescence for this compound: CCCCCCCCCCCCCCCC(=O)N[C@H](C(=O)N[C@H](C(=O)N[C@H](C(=O)N[C@@H](C)C(=O)N[C@@H](C)C(=O)N[C@@H](C)C(=O)N[C@@H](CCCCN)C(=O)N[C@@H](CCCCN)C(=O)N[C@@H](CCCCN)C(N)=O)C(C)C)C(C)C)C(C)C [PA1] (Palmitoyl-VVVAAAKKK-NH2)
278.7

Please give the measured N-fold ThT-fluorescence for this compound: CCCCCCCCCCCC(=O)N[C@H](C(=O)N[C@H](C(=O)N[C@H](C(=O)N[C@@H](C)C(=O)N[C@@H](C)C(=O)N[C@@H](C)C(=O)N[C@@H](CCCCN)C(=O)N[C@@H](CCCCN)C(=O)N[C@@H](CCCCN)C(N)=O)C(C)C)C(C)C)C(C)C [Pat7] (Lauroyl-VVVAAAKKK-NH2)
185.7

In the following, a different compound is considered.
Please give the measured N-fold ThT-fluorescence for this compound: CC/C=C\C/C=C\C/C=C\C/C=C\C/C=C\CCCC(=O)N[C@H](C(=O)N[C@H](C(=O)N[C@H](C(=O)N[C@@H](C)C(=O)N[C@@H](C)C(=O)N[C@@H](C)C(=O)N[C@@H](CCCCN)C(=O)N[C@@H](CCCCN)C(=O)N[C@@H](CCCCN)C(N)=O)C(C)C)C(C)C)C(C)C [Pat10] (X1-VVVAAAKKK-NH2)
61.9
